// provenance: the PETadex activity labels (doi:10.1016/j.bbalip.2005.11.003)

Measured kcat accompanies every entry in the list below.
Substrate: vinyl butyrate
Details: pH 7; 25 °C

{"columns": ["protein", "kcat / s⁻¹"],
 "data": [
  ["unnamed (protein) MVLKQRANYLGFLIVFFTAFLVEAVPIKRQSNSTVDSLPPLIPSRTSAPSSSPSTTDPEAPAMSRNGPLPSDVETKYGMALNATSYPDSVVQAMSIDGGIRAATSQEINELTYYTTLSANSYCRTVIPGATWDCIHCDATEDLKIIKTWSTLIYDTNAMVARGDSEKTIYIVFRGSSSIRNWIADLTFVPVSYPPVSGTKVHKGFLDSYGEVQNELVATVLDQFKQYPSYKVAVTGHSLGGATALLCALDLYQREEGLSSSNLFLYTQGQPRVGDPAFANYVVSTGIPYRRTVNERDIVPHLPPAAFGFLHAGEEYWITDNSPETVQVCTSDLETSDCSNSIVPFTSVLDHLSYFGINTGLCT", 5390],
  ["unnamed (protein) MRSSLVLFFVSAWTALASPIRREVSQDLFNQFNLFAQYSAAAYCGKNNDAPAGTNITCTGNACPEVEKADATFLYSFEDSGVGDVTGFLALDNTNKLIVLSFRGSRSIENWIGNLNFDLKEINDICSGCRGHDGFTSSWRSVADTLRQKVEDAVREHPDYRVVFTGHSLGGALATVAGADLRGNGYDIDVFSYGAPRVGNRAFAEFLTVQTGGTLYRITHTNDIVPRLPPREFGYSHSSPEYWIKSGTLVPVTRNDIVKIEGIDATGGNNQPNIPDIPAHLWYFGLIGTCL", 2600],
  ["unnamed (protein) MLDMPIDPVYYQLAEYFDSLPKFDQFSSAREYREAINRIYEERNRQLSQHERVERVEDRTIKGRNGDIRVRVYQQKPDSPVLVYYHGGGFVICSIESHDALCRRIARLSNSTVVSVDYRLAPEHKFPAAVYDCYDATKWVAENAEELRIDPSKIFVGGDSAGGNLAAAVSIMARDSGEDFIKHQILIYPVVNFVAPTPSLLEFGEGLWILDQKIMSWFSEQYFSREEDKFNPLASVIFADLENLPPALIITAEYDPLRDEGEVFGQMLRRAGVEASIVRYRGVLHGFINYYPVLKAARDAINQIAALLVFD", 210]
]}
